# ELISA per entry
target: T1, proprotein convertase subtilisin/kexin type 9 (PCSK9) (human, UniProt Q8NBP7 31-692); test: phage spot ELISA;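 note: phage clones bound to PCSK9 or PCSK9Δhelix by ELISA, noise being the same phage on NeutrAvidin, positive when signal above 0.4 and signal:noise above 2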
T1 construct: His-tagged full-length PCSK9 in TR-FRET and SPR, biotinylated in phage ELISA; secreted protein is autoprocessed (prodomain plus catalytic/CRD chain starting at S153); also called rec.PCSK9; His-PCSK9
T1 sequence (Q8NBP7 other isoform, or with tags, fused parts or gaps limits assumed): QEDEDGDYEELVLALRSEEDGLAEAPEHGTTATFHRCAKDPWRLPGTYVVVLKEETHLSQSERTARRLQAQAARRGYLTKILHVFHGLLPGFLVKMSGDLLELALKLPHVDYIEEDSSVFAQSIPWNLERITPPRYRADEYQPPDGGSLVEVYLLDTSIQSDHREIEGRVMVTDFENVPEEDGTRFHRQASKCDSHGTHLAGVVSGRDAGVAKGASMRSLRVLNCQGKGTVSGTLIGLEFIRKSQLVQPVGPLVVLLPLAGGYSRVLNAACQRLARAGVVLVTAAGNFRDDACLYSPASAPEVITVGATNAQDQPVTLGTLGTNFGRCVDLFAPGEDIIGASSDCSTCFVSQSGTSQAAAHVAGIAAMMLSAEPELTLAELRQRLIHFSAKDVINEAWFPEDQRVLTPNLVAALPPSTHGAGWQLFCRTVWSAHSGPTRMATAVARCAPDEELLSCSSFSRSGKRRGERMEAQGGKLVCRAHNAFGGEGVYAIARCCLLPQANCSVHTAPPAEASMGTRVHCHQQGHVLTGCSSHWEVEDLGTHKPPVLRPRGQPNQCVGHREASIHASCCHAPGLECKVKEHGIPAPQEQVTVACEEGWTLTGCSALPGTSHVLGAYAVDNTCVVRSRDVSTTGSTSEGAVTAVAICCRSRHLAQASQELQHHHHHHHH
Enter the number alone.

Worked cases, answers included:
TAFTSWEEYLDWVGSGTRYADRGVMVYSLS [SEQ ID NO 321] :: 2.85
TAFTSWEEYLDWVGSGGHPLWNLSRI [SEQ ID NO 316] :: 2.73
TAFTSWEEYLDWVGSGVPWNLARL [SEQ ID NO 314] :: 2.82
TAFTSWEEYLDWVGSGNELWNINRLRSS [SEQ ID NO 317] :: 2.94
TVFTSWEEYLDWV (also called phage displaying Pep2-8) [phage-displayed Pep2-8 (on p8)] :: 2.98
TAFTSWEEYLDWVGSGKNNYAYLINMPRAPGI [SEQ ID NO 325] :: 2.54
TAFTSWEEYLDWVGSGVVLWNHSRIL [SEQ ID NO 313] :: 2.95
TAFTSWEEYLDWVGSGGCVKYRGSVSCQESKT [SEQ ID NO 323] :: 2.85
TAFTSWEEYLDWVGSGRGGYELNIPR [SEQ ID NO 326] :: 2.93
TAFTSWEEYLDWVGSGSCSWNVERIRGCSV [SEQ ID NO 311] :: 2.92

Answer with the recorded ELISA of TAFTSWEEYLDWVGSGPHSYWLDRVQ [SEQ ID NO 332] only.
2.89

For the binder TAFTSWEEYLDWVGSGGPWNLNRV [SEQ ID NO 309] , give its measured ELISA value.
2.68

Please supply the value of reported ELISA for the item TAFTSWEEYLDWVGSGNCWSSLRGICENLG [SEQ ID NO 307]
2.81

For the binder TAFTSWEEYLDWV [phage-displayed Pep2-8V2A] , give its measured ELISA value.
1.27
